Cited source: PubChem BioAssay AID488805

Test system: U2OS HRE-luciferase reporter, HIF pathway activation, luminescence
Experiment: compounds inducing hypoxia-responsive transcription – cell-based, U2OS HRE-luc, luminescence, dry powder, set 2, dose response (AID 488805)
VALUE TYPE: AC50

SMILES RECORD | AC50
c1ccc(-c2nnc(-c3ccccn3)nc2Nc2cnc3ccccc3n2)cc1 | 6.4 µM
c1ccc(-c2nnc(-c3ccccn3)nc2Nc2nc3ccccc3s2)cc1 | 8.19 µM
Cc1ccc(Nc2nc(-c3ccccn3)nnc2-c2ccccc2)cn1 | 27.9 µM
c1ccc(-c2nnc(-c3ccccn3)nc2NCC2CC2)cc1 | 12.3 µM

Problem: Suppose we examine the molecule Cc1cccc(Nc2nc(-c3ccccn3)nnc2-c2ccccc2)n1 ; what AC50 value has been reported?
Result: 25.6 µM

Problem: Reported AC50 for c1ccc(-c2nnc(-c3ccccn3)nc2NCCCN2CCOCC2)cc1 : what is it?
Result: 11 µM

Problem: # lookup: AC50 of OCC1CCN(c2nc(-c3ccccn3)nnc2-c2ccccc2)CC1
Result: 18.7 µM

Problem: What value of AC50 has been reported for the following molecule? Cc1cccc(CNc2nc(-c3ccccn3)nnc2-c2ccccc2)c1
Result: 3.29 µM

Problem: Requested read-out: AC50. Entry: c1ccc(-c2csc(Nc3nc(-c4ccccn4)nnc3-c3ccccc3)n2)cc1
Result: 2.84 µM

Problem: Fill in: AC50 of CN1CCN(c2nc(-c3ccccn3)nnc2-c2ccccc2)CC1 is ___
Result: 14.5 µM

Problem: Report AC50 for OCCCNc1nc(-c2ccccn2)nnc1-c1ccccc1 please.
Result: 21.3 µM
